Exercise: state measured Plant response rating, Cocklebur for each of the compounds provided.
Test system: cocklebur
Procedure Summary: Test B pre/postemergence cocklebur
Format: in vivo, Xanthium strumarium
Experimental Conditions: Preemergence, Rate 500 g/ha; scale of 0 to 10 where 0 is no effect and 10 is complete control
The reply should be a number, written without any unit.

// query Give the measured Plant response rating, Cocklebur for CC(C)N(C(=O)n1oc(=O)n(-c2ccsc2)c1=O)c1ccc(F)cc1 [Compound 272]
// result 0

// query Give the measured Plant response rating, Cocklebur for CC(C)N(C(=O)n1oc(=O)n(CCF)c1=O)c1ccc(F)cc1F [Compound 670]
// result 2

// query Give the measured Plant response rating, Cocklebur for COCn1c(=O)on(C(=O)N(c2ccc(F)cc2)C(C)C)c1=O [Compound 293]
// result 0

// query Give the measured Plant response rating, Cocklebur for Cc1ccccc1-n1c(=O)on(C(=O)N(c2ccc3c(c2)CCC3)C(C)C)c1=O [Compound 278]
// result 0

// query Give the measured Plant response rating, Cocklebur for CC(C)N(C(=O)n1oc(=O)n(CC(=O)C2CC2)c1=O)c1ccc(Cl)cc1 [Compound 639]
// result 2

// query Give the measured Plant response rating, Cocklebur for COC(=O)Cn1c(=O)on(C(=O)N(c2ccc(F)cc2)C(C)C)c1=O [Compound 215]
// result 0

// query Give the measured Plant response rating, Cocklebur for CC(C)N(C(=O)n1oc(=O)n(CC(=O)C(C)(C)C)c1=O)c1ccc(F)cc1 [Compound 216]
// result 0

// query Give the measured Plant response rating, Cocklebur for CCOC(=O)C(C)N(C(=O)n1oc(=O)n(CC)c1=O)c1ccc(F)cc1 (stereo not shown) [Compound 248]
// result 0

// query Give the measured Plant response rating, Cocklebur for COC(=O)C(C)n1c(=O)on(C(=O)N(c2ccc(Cl)cc2)C(C)C)c1=O (stereo not shown) [Compound 623]
// result 0

// query Give the measured Plant response rating, Cocklebur for CC(C)N(C(=O)n1oc(=O)n(C2CCCC2)c1=O)c1ccccc1 [Compound 283]
// result 0

###

Exercise: state measured S. Flatsedge plant response rating for each of the compounds provided.
Test system: smallflower flatsedge
Procedure Summary: Test B flood test smallflower flatsedge
Type: in vivo, Cyperus difformis
Experimental Conditions: Postemergence, Rate 62 g/ha; scale 0 to 10, 0 is no effect, 10 is complete control
The reply should be a number, written without any unit.

// query Give the measured S. Flatsedge plant response rating for `CC(C)N(C(=O)n1oc(=O)n(Cc2cccs2)c1=O)c1ccc(F)cc1F`
// result 0

// query Give the measured S. Flatsedge plant response rating for `COc1ccccc1-n1c(=O)on(C(=O)N(c2ccc(F)cc2F)C(C)C)c1=O`
// result 0

// query Give the measured S. Flatsedge plant response rating for `Cc1cccc(C(C)C)c1-n1c(=O)on(C(=O)N(c2ccc(F)cc2)C(C)C)c1=O`
// result 0

// query Give the measured S. Flatsedge plant response rating for `CC(C)N(C(=O)n1oc(=O)n(-c2ccccc2C(F)(F)F)c1=O)c1ccc(F)cc1`
// result 0

// query Give the measured S. Flatsedge plant response rating for `Cc1ccccc1-n1c(=O)on(C(=O)N(c2ccc(F)c(F)c2)C(C)C)c1=O`
// result 0

// query Give the measured S. Flatsedge plant response rating for `COc1ccc(-n2c(=O)on(C(=O)N(c3ccc(F)cc3F)C(C)C)c2=O)c(OC)c1`
// result 0

// query Give the measured S. Flatsedge plant response rating for `CC(C)N(C(=O)n1oc(=O)n(Cc2ccccc2)c1=O)c1ccc(F)cc1F`
// result 0

###

Exercise: state measured Plant response rating, Velvetleaf for each of the molecules provided.
Test system: velvetleaf
Procedure Summary: Test B pre/postemergence velvetleaf
Type: in vivo, Abutilon theophrasti
Experimental Conditions: Preemergence, Rate 125 g/ha; scale of 0 to 10 where 0 is no effect and 10 is complete control
The reply should be a number, written without any unit.

// query Report Plant response rating, Velvetleaf on velvetleaf for this entry: COC1CCC(Cn2c(=O)on(C(=O)N(c3ccc(Cl)cc3)C(C)C)c2=O)=NO1 (stereo not drawn) [Compound 760]
// result 0

// query Report Plant response rating, Velvetleaf on velvetleaf for this entry: CC(C)N(C(=O)n1oc(=O)n(CCS(C)(=O)=O)c1=O)c1ccc(F)cc1 [Compound 453]
// result 0

// query Report Plant response rating, Velvetleaf on velvetleaf for this entry: CC(C)N(C(=O)n1oc(=O)n(CBr)c1=O)c1ccccc1 [Compound 755]
// result 0

###

System: winter barley
Procedure Summary: Test E winter barley
Assay type: in vivo, Hordeum vulgare
Experimental Conditions: Preemergence; Rate 500 g/ha; 0 to 100 scale where 0 is no effect and 100 is complete control
Measured Metric: Plant response rating, Barley (winter)
The reply should be a number, written without any unit.

// query Give the measured Plant response rating, Barley (winter) for `Cc1ccccc1N(C(=O)n1oc(=O)n(-c2ccccc2C)c1=O)C(C)C`
// result 40

// query Give the measured Plant response rating, Barley (winter) for `CC(C)N(C(=O)n1oc(=O)n(-c2ccccc2)c1=O)c1ccc(F)cc1`
// result 0

// query Give the measured Plant response rating, Barley (winter) for `Cc1ccc(N(C(=O)n2oc(=O)n(-c3ccccc3C)c2=O)C(C)C)cc1`
// result 40

// query Give the measured Plant response rating, Barley (winter) for Cc1cccc(C)c1-n1c(=O)on(C(=O)N(C(C)C)C2C=CCCC2)c1=O (stereo not shown)
// result 65

// query Give the measured Plant response rating, Barley (winter) for CC1CCCCC1n1c(=O)on(C(=O)N(c2ccccc2)C(C)C)c1=O (stereo not shown)
// result 30

// query Give the measured Plant response rating, Barley (winter) for `CC(C)N(C(=O)n1oc(=O)n(Cc2cccs2)c1=O)c1ccc(F)cc1F`
// result 80

// query Give the measured Plant response rating, Barley (winter) for `CC(C)N(C(=O)n1oc(=O)n(C2CC2)c1=O)c1ccc(F)cc1`
// result 85

###

Tested on: giant foxtail
Procedure Summary: Test B pre/postemergence giant foxtail
Type: in vivo, Setaria faberii
Experimental Conditions: Rate 500 g/ha, Postemergence; scale 0 to 10, 0 no effect, 10 complete control
Exercise: state measured Giant foxtail plant response rating for each of the compounds provided.

// query Give the measured Giant foxtail plant response rating for COC(=O)CCCn1c(=O)on(C(=O)N(c2ccc(F)cc2)C(C)C)c1=O [Compound 266]
// result 7

// query Give the measured Giant foxtail plant response rating for C=CCn1c(=O)on(C(=O)N(c2ccc(F)cc2)C2CCCCCC2)c1=O [Compound 249]
// result 0

// query Give the measured Giant foxtail plant response rating for CC(C)N(C(=O)n1oc(=O)n(Cc2ccccc2)c1=O)c1ccc(F)cc1F [Compound 79]
// result 4

###

System: pigweed
Procedure Summary: Test B pre/postemergence pigweed
Format: in vivo, Amaranthus retroflexus
Experimental Conditions: Preemergence, Rate 62 g/ha; scale 0 to 10 (0 no effect, 10 complete control)
Exercise: state measured Redroot pigweed plant response rating for each of the compounds provided.
The reply should be a number, written without any unit.

// query Give the measured Redroot pigweed plant response rating for CCCn1c(=O)on(C(=O)N(c2ccccc2)C(C)C)c1=O [Compound 92]
// result 2

// query Give the measured Redroot pigweed plant response rating for Cc1cccc(C(C)C)c1-n1c(=O)on(C(=O)N(c2ccc(F)cc2)C(C)C)c1=O [Compound 65]
// result 0

// query Give the measured Redroot pigweed plant response rating for CCN(CC)C(=O)n1oc(=O)n(Cc2ccccc2)c1=O [Compound 152]
// result 0

// query Give the measured Redroot pigweed plant response rating for CC(C)N(C(=O)n1oc(=O)n(CC(=O)C(F)(F)F)c1=O)c1ccc(F)cc1F [Compound 598]
// result 0

// query Give the measured Redroot pigweed plant response rating for CC(C)N(C(=O)n1oc(=O)n(CCC(F)(F)F)c1=O)c1ccccc1 [Compound 584]
// result 7

// query Give the measured Redroot pigweed plant response rating for CC(C)N(C(=O)n1oc(=O)n(CC2=NOCCC2)c1=O)c1ccc(F)cc1F [Compound 602]
// result 2

###

System: velvetleaf
Procedure Summary: Test B pre/postemergence velvetleaf
Type: in vivo, Abutilon theophrasti
Experimental Conditions: Rate 62 g/ha, Postemergence; scale of 0 to 10 where 0 is no effect and 10 is complete control
Exercise: state measured Velvetleaf plant response rating for each of the compounds provided.

// query Give the measured Velvetleaf plant response rating for `CC(C)N(C(=O)n1oc(=O)n(-c2ccc(OC(F)(F)F)cc2)c1=O)c1ccc(F)cc1`
// result 0

// query Give the measured Velvetleaf plant response rating for `COc1ccccc1Cn1c(=O)on(C(=O)N(c2ccccc2)C(C)C)c1=O`
// result 0

// query Give the measured Velvetleaf plant response rating for `CC(C)N(C(=O)n1oc(=O)n(Cc2ccco2)c1=O)c1ccc(Cl)cc1`
// result 0

// query Give the measured Velvetleaf plant response rating for `CC(C)N(C(=O)n1oc(=O)n(-c2cccnc2)c1=O)c1ccccc1`
// result 0

// query Give the measured Velvetleaf plant response rating for `CCOc1nc(C(F)(F)F)c(Cn2c(=O)on(C(=O)N(c3ccc(F)cc3)C(C)C)c2=O)s1`
// result 0

// query Give the measured Velvetleaf plant response rating for `CC(C)N(C(=O)n1oc(=O)n(C)c1=O)c1ccc(F)cc1`
// result 2

// query Give the measured Velvetleaf plant response rating for `CCOC(=O)C=CCn1c(=O)on(C(=O)N(c2ccc(F)cc2)C(C)C)c1=O`
// result 0

// query Give the measured Velvetleaf plant response rating for CC(=O)C(C)n1c(=O)on(C(=O)N(c2ccc(F)cc2)C(C)C)c1=O (stereo not drawn)
// result 0

// query Give the measured Velvetleaf plant response rating for `CC(C)N(C(=O)n1oc(=O)n(C2CC2)c1=O)c1ccc(F)cc1`
// result 3
